Entry source: paper PMC4351158

Biological target: T1, DegS N197A/H198P (E. coli, UniProt P0AEE3 27-355, N197A | H198P)
T1 sequence (looked up): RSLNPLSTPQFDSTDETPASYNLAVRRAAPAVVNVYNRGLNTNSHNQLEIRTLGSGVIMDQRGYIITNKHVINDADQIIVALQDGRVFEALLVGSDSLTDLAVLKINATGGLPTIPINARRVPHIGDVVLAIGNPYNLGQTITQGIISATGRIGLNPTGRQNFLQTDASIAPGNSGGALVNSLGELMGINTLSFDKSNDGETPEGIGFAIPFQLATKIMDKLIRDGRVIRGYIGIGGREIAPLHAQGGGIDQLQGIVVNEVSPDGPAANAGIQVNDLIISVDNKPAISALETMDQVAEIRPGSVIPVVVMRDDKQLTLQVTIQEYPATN
Test: fluorescence polarisation
Where no end group is shown, it is not given here. fluorescein = fluorescein, a fluorescent label on the peptide N-terminus
parameter.measured: Kd (nM)
Numbers only, in nM.

Using known records, supply Kd for fluorescein-DNRDGNVYYF [fluorescent OMP peptide fluorescein-DNRDGNVYYF]
700
